%Cross-Reactivity listing for selected substances.
Test system: 266 capture antibody and 10D5 reporter antibody
Experiment: βAP cross-reactivity in 266/10D5 sandwich ELISA
Format: binding
Conditions: molecule at 1-1000 ng/ml
Provide the reading as a plain figure in %.

>>> df
                                  substance                               measured_on  units_of_measure  measurement
0  βAP Fragment 13-18 (HHQKLV; Amyloid-beta protein 42; UniProt P05067 684-689, looked up, fragment)  266 capture antibody and 10D5 reporter antibody                 %            0
1  βAP Fragment 11-18 (EVHHQKLV; Amyloid-beta protein 42; UniProt P05067 682-689, looked up, fragment)  266 capture antibody and 10D5 reporter antibody                 %            0
2  βAP Fragment 15-20 (QKLVFF; Amyloid-beta protein 42; UniProt P05067 686-691, looked up, fragment)  266 capture antibody and 10D5 reporter antibody                 %            0

Let us move to another entry and its %Cross-Reactivity.
*Q* If you can, please state the reported %Cross-Reactivity value of βAP Fragment 13-20 (HHQKLVFF; Amyloid-beta protein 42; UniProt P05067 684-691, looked up, fragment) .
*A* 0.2
